Entry source: ChEMBL document CHEMBL3632558

System: Escherichia coli
test.protocol: Antibacterial activity against Escherichia coli 14-2 after 18 to 24 hrs
Assay type: functional
metric: MIC (mg/L)
State just the number; it will be interpreted in mg/L.

| compound | target.or.system | MIC / mg/L |
| --- | --- | --- |
| C[C@H]1COc2c(N3CCN(C)CC3)c(F)cc3c(=O)c(C(=O)O)cn1c23.C[C@H]1COc2c(N3CCN(C)CC3)c(F)cc3c(=O)c(C(=O)O)cn1c23.O [LEVOFLOXACIN] | Escherichia coli | 4 |

From here, focus on the item given below.
Q: Name the reported MIC value associated with the compound COc1ccc(CO/N=C2\CN(c3nc4c(cc3F)c(=O)c(C(=O)O)cn4[C@@H]3C[C@@H]3F)CC2CN)cc1 (some centres undefined)
Result: 32
